meta.source: patent US20160031999A1

- experimental_system: T1, human IL-11Rα on transfected cells (human, UniProt Q14626 23-422)
- T1 sequence: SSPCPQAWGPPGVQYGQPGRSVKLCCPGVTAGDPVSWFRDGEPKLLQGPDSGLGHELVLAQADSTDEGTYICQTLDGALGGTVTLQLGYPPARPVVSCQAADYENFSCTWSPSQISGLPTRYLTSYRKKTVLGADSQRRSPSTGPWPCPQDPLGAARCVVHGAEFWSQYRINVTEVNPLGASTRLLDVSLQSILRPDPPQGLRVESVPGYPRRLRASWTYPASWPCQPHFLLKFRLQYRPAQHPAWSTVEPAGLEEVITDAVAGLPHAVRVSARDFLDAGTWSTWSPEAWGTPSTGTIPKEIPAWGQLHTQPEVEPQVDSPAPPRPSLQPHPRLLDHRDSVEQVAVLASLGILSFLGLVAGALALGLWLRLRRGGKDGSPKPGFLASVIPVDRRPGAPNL
- test_description: cell-based or functional assay
Form field: Fold increase in potency relative to 8E2 (one value per entry).
Your answer is read as fold, so omit the unit and give the number.

Enquiry: // Input: hu8E2-TS-57 (antibody, V domains shown) VH: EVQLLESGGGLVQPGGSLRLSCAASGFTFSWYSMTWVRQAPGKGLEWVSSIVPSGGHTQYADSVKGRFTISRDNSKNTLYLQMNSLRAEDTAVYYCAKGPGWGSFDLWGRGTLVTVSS VL: DIQMTQSPSSLSASVGDRVTITCQASQDINNYLNWYQQKPGKAPKLLIYDASNLQTGVPSRFSGSGSGTDFTFTISSLQPEDIATYYCQQYETQMPLFGPGTKVDIK . Output its Fold increase in potency relative to 8E2 only.
Return: 3.9

Enquiry: Write down Fold increase in potency relative to 8E2 measured for item hu8E2-TS-307 (antibody, V domains shown) VH: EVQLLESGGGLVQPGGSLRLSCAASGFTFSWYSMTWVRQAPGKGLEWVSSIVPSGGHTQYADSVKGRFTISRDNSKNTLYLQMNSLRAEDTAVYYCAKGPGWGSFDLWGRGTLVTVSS VL: DIQMTQSPSSLSASVGDRVTITCQASQDVSMYVEWYQQKPGKAPKLLIYDASNLQTGVPSRFSGSGSGTDFTFTISSLQPEDIATYYCQQYDNLSPTFGPGTKVDIK
Return: 1.9

Enquiry: Read the entry hu8E2-TS-63 (antibody, V domains shown) VH: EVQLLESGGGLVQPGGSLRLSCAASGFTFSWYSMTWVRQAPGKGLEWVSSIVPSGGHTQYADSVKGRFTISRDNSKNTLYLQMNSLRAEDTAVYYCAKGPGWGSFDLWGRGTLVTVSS VL: DIQMTQSPSSLSASVGDRVTITCQASQDINNYLNWYQQKPGKAPKLLIYDASNLQTGVPSRFSGSGSGTDFTFTISSLQPEDIATYYCQQYDTQQPNFGPGTKVDIK and write its reported Fold increase in potency relative to 8E2.
Return: 5.1

Enquiry: Specify Fold increase in potency relative to 8E2 for hu8E2-TS-305 (antibody, V domains shown) VH: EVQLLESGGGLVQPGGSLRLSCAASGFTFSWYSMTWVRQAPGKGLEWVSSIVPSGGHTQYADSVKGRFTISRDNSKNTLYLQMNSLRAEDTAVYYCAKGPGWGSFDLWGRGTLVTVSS VL: DIQMTQSPSSLSASVGDRVTITCQASQDVGIYVEWYQQKPGKAPKLLIYDASNLQTGVPSRFSGSGSGTDFTFTISSLQPEDIATYYCQQYDNLSPTFGPGTKVDIK and stop.
Return: 2.1

Enquiry: # return recorded Fold increase in potency relative to 8E2 for entry hu8E2-TS-20 (antibody, V domains shown) VH: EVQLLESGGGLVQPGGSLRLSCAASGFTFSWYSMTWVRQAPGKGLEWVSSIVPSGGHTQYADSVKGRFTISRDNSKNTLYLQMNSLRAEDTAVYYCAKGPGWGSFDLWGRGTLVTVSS VL: DIQMTQSPSSLSASVGDRVTITCQASQDINNYLNWYQQKPGKAPKLLIYDASNLQTGVPSRFSGSGSGTDFTFTISSLQPEDIATYYCQQNESQSPTFGPGTKVDIK
Return: 0.6
